The following compounds are shown together with reported %Inh values.
Test system: MYO3B
settings: concentration: 1 μM, replicates: in singlicate; n = 1;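 also: KINOMEscan kinase panel screen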
Quick note: give the figure in %, leave out the unit.

Recorded %Inh, per entry:
Nc1nccc(-c2c(-c3ccc(F)cc3)ncn2C2CCN(Cc3ccccc3)CC2)n1    24
O=C1NC(=O)C(c2ccc(Cl)cc2)=C1Nc1ccc(O)cc1    0
CNCc1ccc2nc(NC(=O)c3ccc(C(C)(C)C)cc3)cn2c1    0
O=C(Nc1n[nH]c2nc(-c3cccs3)c(Br)cc12)C1CCCC1    42
CCn1c(-c2c(N)noc2C)nc2cnccc21    0

Moving on to the next compound.
QUERY: # return %Inh of `Cn1cnc2c(N)ncnc21` (system: MYO3B)
RESULT: 15

* * *

System: MYLK2
settings: concentration: 1 μM, replicates: in singlicate; n = 1
Threshold rule: %Inh greater than or equal to 9% is 1 (yes); below that, 0 (no).

Reference set (2 entries):
O=C1NC(=O)C(c2ccc(Cl)cc2)=C1Nc1cccc(Cl)c1    1 (yes)
O=C(Nc1n[nH]c2nc(-c3cccs3)c(Br)cc12)C1CC1    1 (yes)

QUERY: Could you tell me if the measured %Inh of `O=C1NC(=O)C(c2ccc(Cl)cc2)=C1Nc1ccc(O)cc1` reaches 9% or more?
RESULT: 0 (no)

* * *

Test system: CLK2
settings: concentration: 1 μM, replicates: in singlicate; n = 1
Listed here: items and their measured %Inh.
Enter your answer as a number in %; do not include the unit.

Known %Inh results, listed for orientation:
CC(C)c1ccc(O)cc1Nc1ccnc2ccc(C(F)(F)F)cc12    4
CC[C@@H]1CO[C@H](C(=O)Nc2ccccc2)CN1c1cc(-c2ccc3c(N)n[nH]c3c2)nc(NC)n1    0

QUERY: // Input: `CNCc1ccc2nc(NC(=O)c3ccc(C(C)(C)C)cc3)cn2c1` . Output its %Inh only.
RESULT: 22

QUERY: Please indicate %Inh recorded for `Cc1ccccc1-c1cc(-c2c[nH]nc2-c2ccccn2)ccn1`
RESULT: 0

QUERY: Could you please provide reported %Inh for `CC(=O)c1c(C)c2cnc(Nc3ccn(C)n3)nc2n(C2CCCC2)c1=O` ? Thanks!
RESULT: 16

* * *

Tested on: RPS6KA4(Kin.Dom.2-C-terminal)
settings: concentration: 1 μM, replicates: in singlicate; n = 1
assay-readout: %Inh (%)
The reply should be a number in %, with the unit left off.

Nc1cccc(-c2ccc3c(N)n[nH]c3c2)n1 [GSK2192730]    0
Cl.Cl.Cl.N#Cc1ccc(CCNc2nccc(-c3cccc(CN4CCNCC4)c3)n2)cc1 [GSK2137462]    0
Cc1ccc(NC(=O)Nc2ccccc2)cc1-c1ccc(C(=O)Nc2ccncc2)cc1 [GSK1398471]    0
CNc1cc(-c2ccc3c(N)n[nH]c3c2)nc(N)n1 [GSK2224810]    15

Please look at the following compound next.
QUERY: // output %Inh; input `COc1ccc(-c2coc3ccc(-c4nnc(C)o4)cc23)cc1` ; system RPS6KA4(Kin.Dom.2-C-terminal)
RESULT: 0

* * *

Test system: TRKA
Construct: gene NTRK1
settings: concentration: 1 μM, replicates: in singlicate; n = 1
assay-readout: %Inh (%)
Express the result in % but write the number alone.

Below, each entry is followed by its recorded %Inh result.
Cc1ccc(NC(=O)Nc2ccccc2)cc1-c1ccc(C(=O)Nc2ccncc2)cc1    23
Nc1nccc(-c2c(-c3ccc(F)cc3)ncn2C2CCN(Cc3ccccc3)CC2)n1    0
COc1ccc(Nc2nccc(N3CCC(NC(=O)C(C)c4ccc(Cl)cc4)CC3)n2)cc1 (centres unmarked)    49
CC[C@@H]1CO[C@H](C(=O)Nc2ccccc2)CN1c1cc(-c2ccc3c(N)n[nH]c3c2)nc(NC)n1    9

QUERY: Indicate the recorded %Inh value for this molecule: `O=C1NC(=O)C(c2ccc(Cl)cc2)=C1Nc1cccc(Cl)c1`
RESULT: 23

* * *

Test system: MYLK
settings: concentration: 1 μM, replicates: in singlicate; n = 1
// %Inh lookup, one value per entry
Express it in %; write the number only.

Consider the worked cases shown below.
COc1ccc(Nc2nccc(-c3ccc(NC(=O)c4cc5cc(F)ccc5[nH]4)cc3)n2)cc1 [GSK1229496]    6
CNc1nc(-c2ccc3c(N)n[nH]c3c2)cc(N2C[C@@H](C(=O)Nc3ccccc3)CC[C@H]2C)n1 [GSK2298859]    11
CC(=O)c1cccc(NC(=O)NC2CCN(c3ccnc(Nc4ccc(F)cc4)n3)C2)c1 (centres unmarked) [GSK1379710]    11
COc1cccc(C2=C(Nc3cc(Cl)c(O)c(Cl)c3)C(=O)NC2=O)c1 [SB-390767]    0
CS(=O)(=O)CCNCc1nc(-c2ccc3ncnc(Nc4ccc5c(cnn5Cc5ccccc5)c4)c3c2)cs1.Cl.Cl [GW569716]    0
Fc1ccc(-c2nn3cccc(F)c3c2-c2ccncc2)cc1 [GW475620]    14
CNCc1ccc2nc(NC(=O)c3ccc(C(C)(C)C)cc3)cn2c1    24

Kindly review the next compound as well.
QUERY: Find the measured %Inh of COC(=O)c1cccc(NC(=O)NC2CCN(c3ccnc(Nc4ccc(OC)cc4)n3)C2)c1 (centres unmarked) [GSK1379746] and report it.
RESULT: 0

* * *

Tested on: p38-beta
Construct: gene MAPK11
settings: concentration: 1 μM, replicates: in singlicate; n = 1
# reported %Inh; entries follow
Reply numerically in %, unit not repeated.

Cc1ccc(NC(=O)Nc2ccccc2F)cc1-c1ccc(C(=O)Nc2ccncc2)cc1    12

QUERY: State, in one line, measured %Inh of `Nc1nccc(-c2c(-c3ccc(F)cc3)ncn2C2CCN(Cc3ccccc3)CC2)n1`
RESULT: 18

QUERY: Output %Inh of `O=c1cc(N2CCOCC2)nc2n(Cc3cccc(Cl)c3Cl)c3ccccc3n12`
RESULT: 1

QUERY: Give the value of %Inh reported for the following: `CCc1ccc(-c2ccc3c(c2)-c2n[nH]cc2S(=O)(=O)N3C)cc1`
RESULT: 0

QUERY: Supply recorded %Inh for `CNc1cc(-c2ccc3c(N)n[nH]c3c2)nc(N)n1` here.
RESULT: 0

QUERY: Specify %Inh for `O=c1cc(N2CCOCC2)nc2n(Cc3ccccc3F)ccn12` and stop.
RESULT: 0

QUERY: Assign %Inh to the following record: `COc1cccc(NC(=O)Nc2ccc(C)c(-c3ccc(C(=O)Nc4ccncc4)cc3)c2)c1`
RESULT: 0

QUERY: Give %Inh for `Cc1ccc(NC(=O)Nc2ccccc2)cc1-c1ccc(C(=O)Nc2ccncc2)cc1`
RESULT: 0

QUERY: # return recorded %Inh for input `COc1ccc2cc(-c3nc(-c4ccccc4C(C)C)[nH]c3-c3ccncc3)ccc2c1`
RESULT: 2

* * *

Test system: MEK3
Construct: gene MAP2K3
settings: concentration: 1 μM, replicates: in singlicate; n = 1
Reported %Inh values for the following molecules.
# unit: % | format: bare number

// below: answered molecules
CC(=O)c1c(C)c2cnc(Nc3ccn(C)n3)nc2n(C2CCCC2)c1=O    13
COC(=O)C(NC(=O)NC1CCN(c2ccnc(Nc3ccc(F)cc3)n2)C1)c1ccccc1 (centres unmarked)    0
CS(=O)(=O)CCNCc1nc(-c2ccc3ncnc(Nc4ccc5c(cnn5Cc5ccccc5)c4)c3c2)cs1.Cl.Cl    0

QUERY: System MEK3. Read-out %Inh. Item `COc1cc2ncnc(Nc3cccc(Br)c3)c2cc1OC.Cl` . Report value.
RESULT: 0

QUERY: Fill: %Inh (MEK3) for this molecule `CCc1ccc(-c2ccc3c(c2)-c2n[nH]cc2S(=O)(=O)N3C)cc1`
RESULT: 13

* * *

Tested on: EPHB3
settings: concentration: 1 μM, replicates: in singlicate; n = 1
assay-readout: %Inh
Give the value; after it, write the unit.

Use the examples below as a reference point.
COC(=O)C(Cc1ccccc1)NC(=O)NC1CCN(c2ccnc(Nc3ccc(F)cc3)n2)C1 (stereo not drawn)    0%
COc1ccc(Nc2nccc(NCCNC(=O)Nc3cc(C)ccc3C)n2)cc1    17%
CC(=O)c1c(C)c2cnc(Nc3ccn(C)n3)nc2n(C2CCCC2)c1=O    0%
FC(F)(F)c1ccccc1-c1cc(-c2c[nH]nc2-c2ccccn2)ccn1    2%
COc1ccc(Nc2nccc(N3CCC(NC(=O)C(C)c4ccc(Cl)cc4)C3)n2)cc1 (stereo not drawn)    9%
Fc1ccc(-c2nc3n(c2-c2ccncc2)CCS3)cc1    19%
COc1cccc(CNC(=O)NC2CCN(c3ccnc(Nc4ccc(F)cc4)n3)C2)c1 (stereo not drawn)    5%
Cc1c(Cn2c3ccccc3n3c(=O)cc(N4CCOCC4)nc23)cccc1C(F)(F)F    0%
Cc1c(Cn2c(C)c(C)n3c(=O)cc(N4CCOCC4)nc23)cccc1C(F)(F)F    2%
COc1ccc(Nc2nccc(N3CCC(NC(=O)C(C)c4ccc(Cl)cc4)CC3)n2)cc1 (stereo not drawn)    1%

QUERY: Provide one value: measured %Inh of `CCc1ccc(-c2ccc3c(c2)-c2n[nH]cc2S(=O)(=O)N3C)cc1`
RESULT: 0%

QUERY: Supply recorded %Inh for `COc1cccc(NC(=O)Nc2ccc(C)c(-c3ccc(C(=O)Nc4ccncc4)cc3)c2)c1` here.
RESULT: 18%

QUERY: Complete the entry with %Inh for COc1ccc(Nc2nccc(N3CCC(NC(=O)c4cc5ccccc5s4)C3)n2)cc1 (stereo not drawn)
RESULT: 11%

QUERY: Supply %Inh value. Item: `Cn1cnc2c(N)ncnc21`
RESULT: 0%
